system name: T1, HaloTag-ATRX ADD domain (163-292)
T1 chain: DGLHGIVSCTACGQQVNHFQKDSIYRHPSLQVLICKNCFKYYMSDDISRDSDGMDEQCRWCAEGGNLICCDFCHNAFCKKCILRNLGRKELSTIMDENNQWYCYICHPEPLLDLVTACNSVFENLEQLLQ
procedure summary: peptide microarray binding signal (635 nm), min-max normalized on array (fraction of array maximum); higher = stronger binding
condition summary: peptide region: Unmod H2B variant; binder concentration: 50 nM
Yes means recorded peptide microarray binding signal is 0.007 or above; No means it is below 0.007.

# example entries with known answers
binder: KVLKQVHPDTGIS [Unmod H2B variant K V L K Q V H P D T G I S]
class assignment: No

binder: PEPSKSAPAPKKG [Unmod H2B variant P E P S K S A P A P K K G]
class assignment: No

In plain terms: is recorded peptide microarray binding signal at least 0.007 for KAQKKDGKKRKRS [Unmod H2B variant K A Q K K D G K K R K R S] ?
Yes

In plain terms: is recorded peptide microarray binding signal at least 0.007 for AMSIMNSFVTDIF [Unmod H2B variant A M S I M N S F V T D I F] ?
Yes

In plain terms: is recorded peptide microarray binding signal at least 0.007 for PEPVKSAPVPKKG [Unmod H2B variant P E P V K S A P V P K K G] ?
Yes

In plain terms: is recorded peptide microarray binding signal at least 0.007 for PEPTKSAPAPKKG [Unmod H2B variant P E P T K S A P A P K K G] ?
No
